- test-description: Half life in Sprague-Dawley rat at 10 mg/kg, iv
- Format: ADME, organism-based
- condition-context: in vivo
measured-parameter: half-life (h)
Answer in h, number only, no unit symbol.

Ask: Bench note: what half-life did CCC(C)(C)C(=O)O show?
Reply: 3.93

###

- test-description: Protein binding in Gottingen minipig plasma at 40 uM incubated for 4 hrs by equilibrium dialysis
- Assay type: ADME, cell-free, Sus scrofa domesticus
- condition-context: pig, read-out: PPB (converted)
measured-parameter: fraction unbound at 4 h, 40 µM

Ask: Item under review: CCC(C)(C)C(=O)O . Reported fraction unbound at 4 h, 40 µM?
Reply: 0.55

All values here come from ChEMBL document CHEMBL4808180.
